# system_name: T1, human HIF-2α PAS-B (240-350), recombinant, His-tagged (human, UniProt Q99814 240-350, labelled with Monolith NT-647 dye for MST)
# T1 construct: range 240-350; Expressed in E. coli BL21(DE3)-Rosetta from pET28a; also called PAS-B domain of HIF-2α; not shown: His tag from pET28a vector (BamHI/SacI cloning)
# experiment_description: MST, NT-647-labelled recombinant PAS-B domain
test_readout: Kd (µM)
Enter your answer as a number in µM; do not include the unit.

CRVIIF (head-to-tail cyclic (cyclo-), also called CRVIIF; cyclic peptide #3) [cyclo-cys arg val ile ile phe] has a reported Kd of 118

Data credit: patent US20240270793A1
